biological target: recombinant human βARK1 (Homo sapiens); assay: Inhibitory activity against βARK1 (33P phosphorylation of synthetic peptide); details: recombinant human βARK1, 60 minutes at room temperature
Sequence (P25098 whole entry): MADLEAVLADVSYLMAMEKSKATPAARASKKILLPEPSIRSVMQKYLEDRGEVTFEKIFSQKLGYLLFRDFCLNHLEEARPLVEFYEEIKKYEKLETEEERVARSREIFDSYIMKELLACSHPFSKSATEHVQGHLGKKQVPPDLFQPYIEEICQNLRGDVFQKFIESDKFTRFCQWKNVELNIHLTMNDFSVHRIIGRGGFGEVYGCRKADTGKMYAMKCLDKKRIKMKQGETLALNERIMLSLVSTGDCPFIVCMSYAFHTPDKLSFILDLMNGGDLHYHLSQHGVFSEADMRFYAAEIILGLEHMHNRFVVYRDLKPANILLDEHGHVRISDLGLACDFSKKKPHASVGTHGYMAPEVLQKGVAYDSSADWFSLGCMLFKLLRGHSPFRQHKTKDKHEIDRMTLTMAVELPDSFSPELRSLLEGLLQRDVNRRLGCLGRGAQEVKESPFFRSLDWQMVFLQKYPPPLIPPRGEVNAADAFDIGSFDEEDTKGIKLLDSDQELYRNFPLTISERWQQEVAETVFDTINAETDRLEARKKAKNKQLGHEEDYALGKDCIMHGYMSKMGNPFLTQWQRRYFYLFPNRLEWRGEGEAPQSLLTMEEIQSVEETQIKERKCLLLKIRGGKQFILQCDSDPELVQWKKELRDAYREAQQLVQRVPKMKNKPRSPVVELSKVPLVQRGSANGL
EXPERIMENTAL_READOUT: IC50
Please answer in the form of a number followed by its unit of measurement.

Enter reported IC50 observed with recombinant human βARK1 (Homo sapiens) for `CC(=O)Nc1cc(NC2(C(=O)Nc3nc4ccc5[nH]ncc5c4s3)CC2)ccc1F`
3.7 nM

Recorded IC50 for `CNC(=O)c1cc(NC2(C(=O)Nc3nc4ccc5[nH]ncc5c4s3)CC2)ccc1Cl` with recombinant human βARK1 (Homo sapiens), please?
7.5 nM

Reported IC50 for recombinant human βARK1 (Homo sapiens), given `CC(=O)Nc1cc(NCC(=O)Nc2nc3ccc4[nH]ncc4c3s2)ccc1Cl` ?
8.3 nM

Item CC(=O)Nc1cc(NC(C(=O)Nc2nc3c(C(F)(F)F)cc4[nH]ncc4c3s2)c2ccccc2)ccc1Cl (centres unmarked) with recombinant human βARK1 (Homo sapiens) - IC50?
9.8 nM

Test system recombinant human βARK1 (Homo sapiens); read-out IC50; what value for `O=C(Nc1nc2ccc3[nH]ncc3c2s1)C1(Nc2ccc(Cl)cc2)CC1` ?
3.9 nM

Field: IC50 (recombinant human βARK1 (Homo sapiens)). Entry: `CC(C)(Nc1ccc(Cl)c(C(=O)NC2CC2)c1)C(=O)Nc1nc2c(C(F)(F)F)cc3[nH]ncc3c2s1`
8.8 nM

What value of IC50 on recombinant human βARK1 (Homo sapiens) does `Cc1cc2[nH]ncc2c2sc(NC(=O)C3(Nc4ccc(Cl)cc4)CC3)nc12` have?
6.2 nM

Which IC50 is reported with recombinant human βARK1 (Homo sapiens) for this entry: `CC(C)(Nc1ccc(Cl)c(C(N)=O)c1)C(=O)Nc1nc2c(C(F)(F)F)cc3[nH]ncc3c2s1` ?
3.2 nM

Item `CC(C)(Nc1cccc(S(N)(=O)=O)c1)C(=O)Nc1nc2c(C(F)(F)F)cc3[nH]ncc3c2s1` with recombinant human βARK1 (Homo sapiens) - IC50?
9.3 nM

Report IC50 for `CC(C)(Nc1cccc(O)c1)C(=O)Nc1nc2ccc3[nH]ncc3c2s1` tested on recombinant human βARK1 (Homo sapiens).
7.8 nM

Recorded IC50 for `CCOC(=O)c1cc(NC2(C(=O)Nc3nc4ccc5[nH]ncc5c4s3)CC2)ccc1Cl` with recombinant human βARK1 (Homo sapiens), please?
8.7 nM

###

target: CDK2/Cyclin E complex (Homo sapiens, UniProt P24941); test: In vitro kinase assay, CDK2/Cyclin E complex; conditions: recombinant protein (Upstate); read-out: CDK2/cyclinE IC50
Classify: met when IC50 is strictly less than 100 nM; not met when IC50 is not.

Below 100 nM on IC50? Entry `O=C(CNc1ccc2cn[nH]c2c1)Nc1nc2ccc3[nH]ncc3c2s1`
met

Dear reviewer, please state whether `O=C(CNc1ccc(F)cc1)Nc1nc2ccc3[nH]ncc3c2s1` has IC50 strictly beneath 100 nM.
not met

Just wondering, is IC50 of `O=C(Nc1nc2ccc3[nH]ncc3c2s1)C1(Nc2ccc(Cl)cc2)CCCCC1` below 100 nM?
not met

Report whether reported IC50 is lower than 100 nM (strictly) for `CC(=O)Nc1cc(NC(C)(C)C(=O)Nc2nc3ccc4[nH]ncc4c3s2)ccc1Cl`
met

Lab log: compare recorded IC50 with 100 nM; is it strictly lower for `O=C(CNc1ccc2[nH]ncc2c1)Nc1nc2ccc3[nH]ncc3c2s1` ?
not met

Is IC50 strictly under 100 nM for the entry `CC(C)(Nc1ccc(Cl)c(C(=O)NCC(N)=O)c1)C(=O)Nc1nc2c(C(F)(F)F)cc3[nH]ncc3c2s1` ?
met

is_below(IC50, 100 nM) for `Cc1ccc(NC(C)(C)C(=O)Nc2nc3ccc4[nH]ncc4c3s2)cc1` ?
not met

###

biological target: CDK1/Cyclin B complex (Homo sapiens, UniProt P06493); assay: In vitro kinase assay, CDK1/Cyclin B complex; conditions: recombinant protein (Upstate)
Sequence (P06493 whole entry): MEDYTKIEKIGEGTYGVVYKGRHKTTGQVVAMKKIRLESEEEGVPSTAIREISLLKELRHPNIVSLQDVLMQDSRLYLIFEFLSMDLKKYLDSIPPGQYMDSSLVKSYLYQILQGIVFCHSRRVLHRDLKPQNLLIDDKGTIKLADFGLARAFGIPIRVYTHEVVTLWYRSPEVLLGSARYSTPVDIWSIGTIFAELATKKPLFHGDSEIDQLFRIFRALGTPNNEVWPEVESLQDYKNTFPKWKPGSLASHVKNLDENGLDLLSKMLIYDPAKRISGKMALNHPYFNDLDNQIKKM
Sequence (P14635 whole entry partner): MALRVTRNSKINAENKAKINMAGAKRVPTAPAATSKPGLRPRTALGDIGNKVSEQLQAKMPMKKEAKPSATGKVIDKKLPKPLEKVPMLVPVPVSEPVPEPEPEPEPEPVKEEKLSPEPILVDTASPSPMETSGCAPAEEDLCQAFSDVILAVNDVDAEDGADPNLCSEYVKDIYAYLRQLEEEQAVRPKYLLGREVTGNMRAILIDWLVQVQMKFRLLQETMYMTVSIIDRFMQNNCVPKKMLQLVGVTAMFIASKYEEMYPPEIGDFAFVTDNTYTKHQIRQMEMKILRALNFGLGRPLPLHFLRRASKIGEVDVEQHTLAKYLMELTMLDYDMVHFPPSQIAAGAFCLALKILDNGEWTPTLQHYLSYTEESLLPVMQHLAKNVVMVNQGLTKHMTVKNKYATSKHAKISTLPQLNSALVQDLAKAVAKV
Rule: IC50 below 300 nM gives rule met, anything at or above gives rule not met.

Lab log: compare recorded IC50 with 300 nM; is it strictly lower for `CC(C)(Nc1ccc(Cl)c(C(=O)NCC(=O)O)c1)C(=O)Nc1nc2c(C(F)(F)F)cc3[nH]ncc3c2s1` ?
rule met

Answer whether the molecule `CC(C)(Nc1cccc(C(=O)NCC(=O)OCCO)c1)C(=O)Nc1nc2c(C(F)(F)F)cc3[nH]ncc3c2s1` has IC50 strictly less than 300 nM
rule not met

Report whether reported IC50 is lower than 300 nM (strictly) for `O=C(Nc1nc2ccc3[nH]ncc3c2s1)C1(Nc2ccc(Cl)cc2)CCCCC1`
rule not met

Regarding `CC(C)(Nc1ccc(Cl)c(NS(C)(=O)=O)c1)C(=O)Nc1nc2c(C(F)(F)F)cc3[nH]ncc3c2s1` , kindly confirm whether its IC50 is beneath 300 nM.
rule met

For `CC(C)(Nc1cccc(C(=O)NCCC(N)=O)c1)C(=O)Nc1nc2c(C(F)(F)F)cc3[nH]ncc3c2s1` , is the recorded IC50 below the cut-off of 300 nM?
rule met

Regarding `CC(C)(Nc1cccc(O)c1)C(=O)Nc1nc2ccc3[nH]ncc3c2s1` , kindly confirm whether its IC50 is beneath 300 nM.
rule met

Take the molecule `CNC(=O)c1cc(NC(C)(C)C(=O)Nc2nc3c(C(F)(F)F)cc4[nH]ncc4c3s2)ccc1F` and say whether its IC50 is less than 300 nM.
rule met

###

target: Aurora A (Homo sapiens, UniProt O14965); construct: purchased Upstate Inc. 14-511; experiment: In vitro kinase assay, Aurora A; format: biochemical; conditions: recombinant protein (Upstate)
Sequence (O14965 whole entry): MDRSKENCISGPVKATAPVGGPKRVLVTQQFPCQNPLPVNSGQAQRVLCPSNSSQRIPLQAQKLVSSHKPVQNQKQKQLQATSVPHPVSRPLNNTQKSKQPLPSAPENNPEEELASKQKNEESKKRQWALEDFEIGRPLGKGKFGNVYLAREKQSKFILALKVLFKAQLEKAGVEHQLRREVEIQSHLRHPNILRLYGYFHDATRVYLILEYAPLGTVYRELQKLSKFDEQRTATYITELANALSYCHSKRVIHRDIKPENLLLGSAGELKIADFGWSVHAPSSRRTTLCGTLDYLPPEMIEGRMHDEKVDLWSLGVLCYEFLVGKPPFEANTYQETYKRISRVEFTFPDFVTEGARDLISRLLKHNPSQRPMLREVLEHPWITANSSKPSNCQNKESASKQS
pIC50: −log10 of the molar value.
Outcome label depends on pIC50 relative to 7: at/above gives 1.0, below gives 0.0.

Check the entry COc1cccc(NC(C)(C)C(=O)Nc2nc3ccc4[nH]ncc4c3s2)c1 [compound 34] : does pIC50 equal or exceed 7?
0.0

Hi, just wondering whether CC(Nc1cccc(O)c1)C(=O)Nc1nc2ccc3[nH]ncc3c2s1 (stereo not shown) [compound 23] shows pIC50 of 7 or higher.
1.0

Evaluate CC(C)(Nc1ccc(Cl)c(C(N)=O)c1)C(=O)Nc1nc2c(C(F)(F)F)cc3[nH]ncc3c2s1 [compound 135] : pIC50 at minimum 7?
1.0

Please indicate if the recorded pIC50 for COc1cc(NC(C)(C)C(=O)Nc2nc3ccc4[nH]ncc4c3s2)ccc1Cl [compound 43] meets or exceeds 7.
0.0

Could you verify whether the entry CC(C)(Nc1cccc(C(=O)NCCCC(=O)O)c1)C(=O)Nc1nc2c(C(F)(F)F)cc3[nH]ncc3c2s1 [compound 140] shows pIC50 of no less than 7?
0.0

Is pIC50 for CC(C)(Nc1ccc(Cl)cc1)C(=O)Nc1nc2ccc3[nH]ncc3c2s1 [compound 35] at or above 7?
0.0

Quick check: does CC(C)(Nc1ccc(Cl)c(O)c1)C(=O)Nc1nc2c(C(F)(F)F)cc3[nH]ncc3c2s1 [compound 95] have pIC50 greater than or equal to 7?
0.0

Record CC(C)(Nc1ccc(Cl)c(C(=O)NC2CC2)c1)C(=O)Nc1nc2c(C(F)(F)F)cc3[nH]ncc3c2s1 [compound 75] ; criterion: pIC50 no lower than 7. Met?
0.0

# bool: pIC50 of O=C(Nc1nc2ccc3[nH]ncc3c2s1)C1(Nc2cccc(O)c2)CC1 [compound 122] >= 7
0.0

Please check the record COc1cccc(NC(C)C(=O)Nc2nc3ccc4[nH]ncc4c3s2)c1 (stereo not shown) [compound 22] and state if its pIC50 is at or above 7.
0.0

Textbook exercise: given the entry CC(=O)Nc1cc(NC(C)(C)C(=O)Nc2nc3c(C(F)(F)F)cc4[nH]ncc4c3s2)ccc1Cl [compound 53] , state whether its pIC50 is greater than or equal to 7.
0.0

###

biological target: CDK3/Cyclin E complex (Homo sapiens, UniProt Q00526); experiment: In vitro kinase assay, CDK3/Cyclin E complex; conditions: recombinant protein (Upstate); read-out: CDK3/cyclinE IC50
Sequence (Q00526 whole entry): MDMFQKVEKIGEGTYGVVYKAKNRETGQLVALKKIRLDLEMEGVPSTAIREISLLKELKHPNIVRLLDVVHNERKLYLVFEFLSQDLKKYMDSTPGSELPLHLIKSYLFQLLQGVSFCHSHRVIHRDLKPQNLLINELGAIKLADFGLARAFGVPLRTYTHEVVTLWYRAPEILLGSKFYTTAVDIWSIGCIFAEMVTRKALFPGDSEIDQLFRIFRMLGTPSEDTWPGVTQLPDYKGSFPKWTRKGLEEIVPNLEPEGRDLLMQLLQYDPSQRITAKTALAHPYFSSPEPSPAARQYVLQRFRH
Sequence (P24864 whole entry partner): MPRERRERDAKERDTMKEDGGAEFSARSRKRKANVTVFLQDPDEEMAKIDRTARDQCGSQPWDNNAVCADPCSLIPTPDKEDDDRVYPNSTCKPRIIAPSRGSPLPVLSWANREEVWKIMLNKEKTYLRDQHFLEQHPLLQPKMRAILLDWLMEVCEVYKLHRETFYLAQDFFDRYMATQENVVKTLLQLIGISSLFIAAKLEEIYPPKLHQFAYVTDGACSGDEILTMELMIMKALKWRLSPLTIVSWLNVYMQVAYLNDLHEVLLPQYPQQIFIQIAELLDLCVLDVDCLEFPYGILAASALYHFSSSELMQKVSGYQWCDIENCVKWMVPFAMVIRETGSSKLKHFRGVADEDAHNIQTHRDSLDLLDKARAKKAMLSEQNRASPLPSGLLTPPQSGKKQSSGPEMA
EXPERIMENTAL_READOUT: log10 of IC50 (log10 of the value in nM)
Give log10 of IC50, with IC50 taken in nM.

I am curious: what log10 of IC50 value has been reported for `CC(C)(Nc1ccc(F)c(C(N)=O)c1)C(=O)Nc1nc2c(C(F)(F)F)cc3[nH]ncc3c2s1` ?
1.08

Would you kindly share the measured log10 of IC50 for `CS(=O)(=O)Nc1cccc(NCC(=O)Nc2nc3ccc4[nH]ncc4c3s2)c1` ?
2.61

For the compound `O=C(Nc1nc2ccc3[nH]ncc3c2s1)C1(Nc2ccc(Cl)cc2)CCCCC1` , what log10 of IC50 is on record?
2.61

Request the reported log10 of IC50 associated with `CC(=O)Nc1cc(NCC(=O)Nc2nc3ccc4[nH]ncc4c3s2)ccc1Cl`
1.70

Need log10 of IC50 of `CC(C)(Nc1ccc(Cl)c(NC(=O)OCCO)c1)C(=O)Nc1nc2c(C(F)(F)F)cc3[nH]ncc3c2s1` , thanks.
2.02

Any idea what its log10 of IC50 is? The compound is `Cc1cc2[nH]ncc2c2sc(NC(=O)CNc3ccccc3)nc12`
2.38

Looking for the measured log10 of IC50 of `CCC(=O)Nc1cc(NC(C)(C)C(=O)Nc2nc3ccc4[nH]ncc4c3s2)ccc1Cl` , can you help?
2.01

Entry `CNC(=O)Nc1cc(NC(C)(C)C(=O)Nc2nc3c(C(F)(F)F)cc4[nH]ncc4c3s2)ccc1Cl` : reported log10 of IC50 = ?
1.85
